# reported IC50; entries follow
- assay_system: GABAA-R (rat brain cortical membranes)
- measurement_protocol: Steroid inhibition of [35S]-TBPS binding (radioligand displacement)
- conditions_used: in the presence of 5 μM GABA

> print(dat)
                              record.smiles  measured.result
1  Cn1ccnc1CC(=O)[C@H]1CC[C@H]2[C@@H]3CC[C@@H]4C[C@](C)(O)CC[C@@H]4[C@H]3CC[C@]12C    100 to 500 nM

Ask: Requested field: IC50. Item: "Cc1nc(CC(=O)[C@H]2CC[C@H]3[C@@H]4CC[C@@H]5C[C@](C)(O)CC[C@@H]5[C@H]4CC[C@]23C)oc1C"
Result: < 50 nM

Ask: Try this molecule next: "Cc1cccc(CC(=O)[C@H]2CC[C@H]3[C@@H]4CC[C@@H]5C[C@](C)(O)CC[C@@H]5[C@H]4CC[C@]23C)n1"
Result: < 50 nM

Ask: Try this molecule next: "C[C@@]1(O)CC[C@H]2[C@H](CC[C@@H]3[C@@H]2CC[C@]2(C)[C@@H](C(=O)Cc4ccccc4)CC[C@@H]32)C1"
Result: < 50 nM

Ask: Try this molecule next: "C[C@@]1(O)CC[C@H]2[C@H](CC[C@@H]3[C@@H]2CC[C@]2(C)[C@@H](C(=O)Cc4ccccn4)CC[C@@H]32)C1"
Result: < 50 nM

Ask: Try this molecule next: "C[C@@]1(O)CC[C@H]2[C@H](CC[C@@H]3[C@@H]2CC[C@]2(C)[C@@H](C(=O)Cc4cccnc4)CC[C@@H]32)C1"
Result: < 50 nM

Ask: Try this molecule next: "Cc1nc(CC(=O)[C@H]2CC[C@H]3[C@@H]4CC[C@@H]5C[C@](C)(O)CC[C@@H]5[C@H]4CC[C@]23C)sc1C"
Result: 50 to 100 nM

Ask: Try this molecule next: "C[C@@]1(O)CC[C@H]2[C@H](CC[C@@H]3[C@@H]2CC[C@]2(C)[C@@H](C(=O)Cc4nccs4)CC[C@@H]32)C1"
Result: < 50 nM

* * *

- assay_system: GABAA receptor α1β2γ2 (Homo sapiens, UniProt P14867+P47870)
- Construct: expressed in transfected cells; host or cells: LTK cells (stably transfected)
- Sequence (P14867 28-456): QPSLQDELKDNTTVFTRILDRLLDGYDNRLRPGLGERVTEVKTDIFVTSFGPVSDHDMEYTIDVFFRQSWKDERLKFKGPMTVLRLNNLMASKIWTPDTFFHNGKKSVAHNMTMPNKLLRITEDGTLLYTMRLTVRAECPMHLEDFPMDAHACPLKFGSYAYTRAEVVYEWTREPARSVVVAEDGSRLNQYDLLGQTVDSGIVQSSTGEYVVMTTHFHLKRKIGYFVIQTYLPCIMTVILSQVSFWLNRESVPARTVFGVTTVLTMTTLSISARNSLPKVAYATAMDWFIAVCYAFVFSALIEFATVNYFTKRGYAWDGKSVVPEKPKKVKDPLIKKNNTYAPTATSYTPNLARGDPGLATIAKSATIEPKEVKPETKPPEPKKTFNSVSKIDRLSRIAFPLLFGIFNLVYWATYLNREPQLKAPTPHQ
- Sequence (P47870 25-512 limits assumed): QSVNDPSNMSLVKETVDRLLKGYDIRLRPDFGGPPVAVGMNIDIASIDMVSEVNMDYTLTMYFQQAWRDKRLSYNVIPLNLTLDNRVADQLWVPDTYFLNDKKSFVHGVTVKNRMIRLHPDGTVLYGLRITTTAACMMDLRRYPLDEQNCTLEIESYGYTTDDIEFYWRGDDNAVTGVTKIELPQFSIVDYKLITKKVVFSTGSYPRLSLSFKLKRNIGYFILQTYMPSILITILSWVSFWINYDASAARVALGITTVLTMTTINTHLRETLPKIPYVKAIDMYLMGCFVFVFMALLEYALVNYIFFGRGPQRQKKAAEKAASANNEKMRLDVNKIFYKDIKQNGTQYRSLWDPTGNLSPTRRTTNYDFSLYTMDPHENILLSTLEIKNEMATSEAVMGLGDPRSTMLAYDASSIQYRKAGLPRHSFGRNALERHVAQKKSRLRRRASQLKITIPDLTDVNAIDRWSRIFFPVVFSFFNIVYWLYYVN
- Sequence (P18507 40-475 partner): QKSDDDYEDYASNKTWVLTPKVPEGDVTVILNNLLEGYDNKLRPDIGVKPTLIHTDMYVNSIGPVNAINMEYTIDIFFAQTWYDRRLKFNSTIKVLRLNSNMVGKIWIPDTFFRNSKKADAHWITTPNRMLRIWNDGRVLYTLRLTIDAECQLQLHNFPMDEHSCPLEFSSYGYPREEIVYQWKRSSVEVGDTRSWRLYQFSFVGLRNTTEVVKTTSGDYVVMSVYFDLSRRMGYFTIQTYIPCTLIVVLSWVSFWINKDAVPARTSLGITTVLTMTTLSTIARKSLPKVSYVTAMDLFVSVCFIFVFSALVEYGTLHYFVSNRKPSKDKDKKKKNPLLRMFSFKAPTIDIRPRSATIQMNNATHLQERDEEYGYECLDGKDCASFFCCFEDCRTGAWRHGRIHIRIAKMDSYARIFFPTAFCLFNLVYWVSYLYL
- measurement_protocol: Patch clamp electrophysiology, Qpatch in Ltk cells
- Format: cell-based
- conditions_used: 10 μM test article, potentiation of GABA EC20 (2 μM) current, read-out: GABA (α1β2γ2) Qpatch in Ltk, % efficacy at 10 μM
- Experimental: Patch Clamp Electrophysiology of Recombinant α1β2γ2 and α4β3δ GABAA Receptors Cellular electrophysiology is used to measure the pharmacological properties of our GABAA receptor modulators in heterologous cell systems. Each compound is tested for its ability to affect GABA mediated currents at a submaximal agonist dose (GABA EC20=2 μM). […] Whole cell currents were measured with HEKA EPC-10 amplifiers using PatchMaster software or by using the high throughput QPatch platform (Sophion). […]
# reported Emax at 10 µM; entries follow

Some solved cases for reference:
> print(dat)
                                   compound  measured.result
1  C[C@@]1(O)CC[C@H]2[C@H](CC[C@@H]3[C@@H]2CC[C@]2(C)[C@@H](C(=O)Cc4nccs4)CC[C@@H]32)C1 [SA-7]           > 500%
2  Cn1ccnc1CC(=O)[C@H]1CC[C@H]2[C@@H]3CC[C@@H]4C[C@](C)(O)CC[C@@H]4[C@H]3CC[C@]12C [SA-3]      100 to 500%
3  C[C@@]1(O)CC[C@H]2[C@H](CC[C@@H]3[C@@H]2CC[C@]2(C)[C@@H](C(=O)Cc4ccccn4)CC[C@@H]32)C1 [SA-2]      100 to 500%
4  C[C@@]1(O)CC[C@H]2[C@H](CC[C@@H]3[C@@H]2CC[C@]2(C)[C@@H](C(=O)Cc4cnccn4)CC[C@@H]32)C1 [SA-9]      100 to 500%
5  Cc1nc(CC(=O)[C@H]2CC[C@H]3[C@@H]4CC[C@@H]5C[C@](C)(O)CC[C@@H]5[C@H]4CC[C@]23C)oc1C [SA-1]           > 500%

Ask: Requested field: Emax at 10 µM. Item: Cc1cccc(CC(=O)[C@H]2CC[C@H]3[C@@H]4CC[C@@H]5C[C@](C)(O)CC[C@@H]5[C@H]4CC[C@]23C)n1 [SA-4]
Result: 100 to 500%
